Recorded values, source the supplement of paper PMC12783771.

B1: library; a variant is named by its letters at X, in order (parent)
chain: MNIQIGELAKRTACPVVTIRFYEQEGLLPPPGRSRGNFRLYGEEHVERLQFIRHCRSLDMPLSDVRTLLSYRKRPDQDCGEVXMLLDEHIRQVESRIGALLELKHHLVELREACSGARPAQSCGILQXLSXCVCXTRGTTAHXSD

variants of: B1; test: sfGFP reporter fluorescence (15 h) (µM FITC); higher = stronger transcriptional activation; settings: library round: Round 2; ligand: 1 µM Pb
// thresholds for sfGFP reporter fluorescence classes: bottom end = under 0.07, midrange = from 0.07 up to 0.3, top end = 0.3 and over

Worked cases, answers included:
>>> assigned_class("MNIQIGELAKRTACPVVTIRFYEQEGLLPPPGRSRGNFRLYGEEHVERLQFIRHCRSLDMPLSDVRTLLSYRKRPDQDCGEVNMLLDEHIRQVESRIGALLELRHHLVELREACSGARPAQSCGILQGLSYCVCATRGTTAHPSD [NGYAP K104R]")
"bottom end"
>>> assigned_class("MNIQIGELAKRTACPVVTIRFYEQEGLLPPPGRSRGNFRLYGEEHVERLQFIRHCRSLDMPLSDVRTLLSYRKRPDQDCGEVSMLLDEHIRQVESRIGALLELKHHLVELREACSGARPAQSCGILQGLSSCVCPTRGTTAHPSD [SGSPP]")
"midrange"

Just checking, what class would you give MNIQIGELAKRTACPVVTIRFYEQEGLLPPPGRSRGNFRLYGEEHVERLQFIRHCRSLDMPLSDVRTLLSYRKRPDQDCGEVTMLLDEHIRQVESRIGALLELKHHLVELREACSGARPAQSCGILQGLSCCVCATRGTTAHPSD [TGCAP] here?
bottom end

Just checking, what class would you give MNIQIGELAKRTACPVVTIRFYEQEGLLPPPGRSRGNFRLYGEEHVERLQFIRHCRSLDMPLSDVRTLLSYRKRPDQDCGEVNMLLDEHIRQVESRIGALLELKHHLIELREACGGARPAQSCGILQGLSCCVCDTRGTTAHPSD [NGCDP V108I S115G] here?
bottom end

Just checking, what class would you give MNIQIGELAKRTACPVVTIRFYEQEGLLPPPGRSRGNFRLYGEEHVERLQFIRHCRSLDMPLSDVRTLLSYRKRPDQDCGEVTMLLDEHIRQVESRIGALLELKHHLVELREACSGARPAQSCGILQGLSCCVCATRGTTAHTSD [TGCAT] here?
bottom end

Just checking, what class would you give MNIQIGELAKRTACPVVTIRFYEQEGLLPPPGRSRGNFRLYGEEHVERLQFIRHCRSLDMPLSDVRTLLSYRKRPDQDCGEVTMLLDEHIRQVESRIGALLELKHHLVELRIACSGARPAQSCGILQGLSDCVCATRGTTAHASD [TGDAA E112I] here?
bottom end
